# Test system: U138-MG human glioma cell
# TEST NAME: Cell proliferation analysis (MTT)
# Format: cell-based
# STATED CONDITIONS: Homo sapiens, 48 h, 10 µM, two days, MTT
I'd be grateful if you could share measured activity at 10 µM for these entries.
Give bare numbers, in %.

Worked cases, answers included:
| COMPOUND | READING |
| --- | --- |
| O=C1CCc2cc(OCCBr)ccc2N1 [TR-G017] | 82 |
| O=C(COc1ccc2c(c1)CCC(=O)N2)NN=Cc1cccs1 [TR-G024] | 70 |
| O=C(COc1ccc2c(c1)CCC(=O)N2)N/N=C/c1ccc(F)cc1 [TR-G128] | 68 |
| Cc1cn(-c2cc(NC(=O)COc3ccc4c(c3)CCC(=O)N4)cc(C(F)(F)F)c2)cn1 [TR-G054] | 79 |
| CCOC(=O)Cn1cc(COc2ccc3c(c2)CCC(=O)N3)nn1 [TR-G033] | 71 |
| O=C1CCc2cc(OC(=O)Cc3ccccc3)ccc2N1 [TR-G007] | 82 |
| O=C1CCc2cc(OCCCCc3nnnn3C3CCCCC3)ccc2N1Cc1ccccc1 [TR-G110] | 69 |
| O=C1CCc2cc(OC(=O)c3cc(C(F)(F)F)ccc3F)ccc2N1 [TR-G036] | 81 |

Read the next record carefully.
Fill in the blank: the reported activity at 10 µM of O=C(COc1ccc2c(c1)CCC(=O)N2)N/N=C/C1CCCCC1 [TR-G029] is ____.
68

* * *

# Tested on: U138-MG human glioma cell
# TEST NAME: Cell proliferation analysis (MTT)
# Format: cell-based
# STATED CONDITIONS: Homo sapiens, 48 h, 10 µM, two days, MTT
RECORDED ENDPOINT: inhibition at 10 µM (%)
Numbers only, in %.

Worked cases, answers included:
| MOLECULE | UNIT OF MEASURE | READING |
| --- | --- | --- |
| C=Cc1ccc(CN2C(=O)CCc3cc(OCCCCc4nnnn4C4CCCCC4)ccc32)cc1 | % | -3 |
| O=C1CCc2cc(OC(=O)c3ccc(CCl)cc3)ccc2N1 | % | 10 |
| O=C1CCc2cc(OS(=O)(=O)c3ccc(C(F)(F)F)cc3)ccc2N1 | % | 6 |
| COc1cc(NC(=O)COc2ccc3c(c2)CCC(=O)N3)cc(OC)c1 | % | 14 |
| O=C1CCc2cc(OCc3cc(-c4c(F)cccc4Cl)no3)ccc2N1 | % | 41 |
| C=CCOc1ccc2c(c1)CCC(=O)N2CC=C [TR-G014A] | % | 32 |

Each molecule below has a recorded value; state its inhibition at 10 µM.
1. CCOC(=O)COc1ccc2c(c1)CCC(=O)N2
2. CCCC(CCC)C(=O)Oc1ccc2c(c1)CCC(=O)N2
3. CCOC(=O)CN1C(=O)CCc2cc(OCCCCc3nnnn3C3CCCCC3)ccc21
4. C=CCN1C(=O)CCc2cc(OCCCCc3nnnn3C3CCCCC3)ccc21
5. C=CCOC(=O)N1C(=O)CCc2cc(OCCCCc3nnnn3C3CCCCC3)ccc21
6. C=CC(=O)N(NC(=O)COc1ccc2c(c1)CCC(=O)N2)C(=O)C=C

15
13
51
38
15
2

Each molecule below has a recorded value; state its inhibition at 10 µM.
1. O=C(COc1ccc2c(c1)CCC(=O)N2)N/N=C1\C(=O)Nc2ccc(F)cc21
2. O=C(COc1ccc2c(c1)CCC(=O)N2)N/N=C/C1CCCCC1
3. O=C(COc1ccc2c(c1)CCC(=O)N2)N/N=C/c1ccc(-c2ccc(Cl)cc2)cc1
4. O=C1CCc2cc(OCc3cn(-c4cccc5[nH]ncc45)nn3)ccc2N1

46
32
21
43

Each molecule below has a recorded value; state its inhibition at 10 µM.
1. CS(=O)(=O)Oc1ccc2c(c1)CCC(=O)N2
2. O=C(COc1ccc2c(c1)CCC(=O)N2)N/N=C/c1ccc(F)cc1

1. 1
2. 32

* * *

I'd be grateful if you could share measured inhibition at 10 µM for these entries.
# Test system: U138-MG human glioma cell
# TEST NAME: Cell proliferation analysis (MTT)
# Assay type: cell-based
# STATED CONDITIONS: Homo sapiens, 48 h, 10 µM, two days, MTT
Answers are plain numbers, in %.

| COMPOUND | TARGET UNDER TEST | UNIT OF MEASURE | READING |
| --- | --- | --- | --- |
| Cc1cn(-c2cc(NC(=O)COc3ccc4c(c3)CCC(=O)N4)cc(C(F)(F)F)c2)cn1 | U138-MG human glioma cell | % | 21 |
| CCCOc1ccc2c(c1)CCC(=O)N2 [TR-G068, 6-propoxy-3,4-dihydroquinolin-2(1H)-one] | U138-MG human glioma cell | % | 18 |
| O=C(COc1ccc2c(c1)CCC(=O)N2)N/N=C/c1ccccc1 | U138-MG human glioma cell | % | 26 |

Fill in the blank: the reported inhibition at 10 µM of O=C1CCc2cc(OC(=O)Nc3ccccc3C(F)(F)F)ccc2N1 is ____.
40

* * *

# Test system: U138-MG human glioma cell
# TEST NAME: Cell proliferation analysis (MTT)
# Type: cell-based
# STATED CONDITIONS: Homo sapiens, 48 h, 10 µM, two days, MTT
# Protocol: U87-MG and U138-MG human glioma cell, were incubated with 10% fetal bovine serum (FBS) (Gibco, 10500-064), 1% L-glutamine (Gibco, 25030-024), in a humidified incubator with 5% CO2 at 37 °C. […] The cytotoxic effects of the target compounds on U87-MG and U138-MG cell lines were assessed using the MTT (Thiazolyl Blue Tetrazolium Bromide) method. […] Cell proliferation was analysed by measuring the absorbance of dissolved formazan at a wavelength of 570 nm. […]
RECORDED ENDPOINT: activity at 10 µM

Each compound below has a recorded value; state its activity at 10 µM.
1. COc1ccc(NC(=O)COc2ccc3c(c2)CCC(=O)N3)cc1OC [TR-G077]
2. O=C(COc1ccc2c(c1)CCC(=O)N2)N/N=C/c1ccco1 [TR-G025]

1: 88%; 2: 90%

Each compound below has a recorded value; state its activity at 10 µM.
1. O=C1CCc2cc(OC(=O)N3CCCC3)ccc2N1 [TR-G061]
2. CCCn1cc(COc2ccc3c(c2)CCC(=O)N3)nn1 [TR-G082]

["92%", "89%"]

Fill in the blank: the reported activity at 10 µM of O=C(COc1ccc2c(c1)CCC(=O)N2)Nc1ccc([N+](=O)[O-])cn1 [TR-G122] is ____.
90%

* * *

# Tested on: U138-MG human glioma cell
# TEST NAME: Cell proliferation analysis (MTT)
# Type: cell-based
# STATED CONDITIONS: Homo sapiens, 48 h, 10 µM, two days, MTT
# Description: U87-MG and U138-MG human glioma cell, were incubated with 10% fetal bovine serum (FBS) (Gibco, 10500-064), 1% L-glutamine (Gibco, 25030-024), in a humidified incubator with 5% CO2 at 37 °C. […] The cytotoxic effects of the target compounds on U87-MG and U138-MG cell lines were assessed using the MTT (Thiazolyl Blue Tetrazolium Bromide) method. […] Cell proliferation was analysed by measuring the absorbance of dissolved formazan at a wavelength of 570 nm. […]
# binarize inhibition at 10 µM: threshold 20% inclusive, high side class 1, low side class 0

Use these answered entries as a reference point.
| COMPOUND | ASSIGNED CATEGORY |
| --- | --- |
| C#CCOc1ccc2c(c1)CCC(=O)N2 | class 0 |
| NC(=O)COCCOc1ccc2c(c1)CCC(=O)N2 | class 0 |
| COc1ccc(NC(=O)COc2ccc3c(c2)CCC(=O)N3)cc1OC | class 0 |
| O=C(COc1ccc2c(c1)CCC(=O)N2)Nc1ccc(N2CCOCC2)cc1 | class 1 |

Hi team, for O=C1CCc2cc(OCC3CC(c4ccc(F)cc4)=NO3)ccc2N1 (centres unmarked) , is the recorded inhibition at 10 µM at or above 20%?
class 1

Hi team, for O=C(OCCCCOc1ccc2c(c1)CCC(=O)N2CCCCOC(=O)c1ccccc1)c1ccccc1 [TR-G013A] , is the recorded inhibition at 10 µM at or above 20%?
class 1

Hi team, for O=C1CCc2cc(OC(=O)CN3CCN(c4ncccn4)CC3)ccc2N1 , is the recorded inhibition at 10 µM at or above 20%?
class 0

Hi team, for CCCCCCn1cc(COc2ccc3c(c2)CCC(=O)N3)nn1 , is the recorded inhibition at 10 µM at or above 20%?
class 0

Hi team, for O=C1CCc2cc(OCC3CC3)ccc2N1 , is the recorded inhibition at 10 µM at or above 20%?
class 1

Hi team, for O=C1CCc2cc(OCc3cc(-c4ccc(Cl)cc4)no3)ccc2N1 , is the recorded inhibition at 10 µM at or above 20%?
class 1

Hi team, for O=C(COc1ccc2c(c1)CCC(=O)N2)N/N=C1\C(=O)Nc2ccc([N+](=O)[O-])cc21 , is the recorded inhibition at 10 µM at or above 20%?
class 0

Hi team, for CC(C)(C)c1ccc(COc2ccc3c(c2)CCC(=O)N3)cc1 , is the recorded inhibition at 10 µM at or above 20%?
class 1

Hi team, for CC(=O)c1ccc(-n2cc(COc3ccc4c(c3)CCC(=O)N4)nn2)cc1 , is the recorded inhibition at 10 µM at or above 20%?
class 1

Hi team, for CCN(C)C(=O)Oc1ccc2c(c1)CCC(=O)N2 , is the recorded inhibition at 10 µM at or above 20%?
class 1

Hi team, for O=C1CCc2cc(OC(=O)c3cccc(F)c3)ccc2N1 , is the recorded inhibition at 10 µM at or above 20%?
class 0

Hi team, for CC(C)C/C=N/NC(=O)COc1ccc2c(c1)CCC(=O)N2 , is the recorded inhibition at 10 µM at or above 20%?
class 0

Hi team, for O=C1CCc2cc(OS(=O)(=O)c3cccc(Cl)c3Cl)ccc2N1 , is the recorded inhibition at 10 µM at or above 20%?
class 0

Hi team, for O=C1CCc2cc(OC(=O)Cc3ccccc3)ccc2N1 , is the recorded inhibition at 10 µM at or above 20%?
class 0

Hi team, for CC(C)N(C(=O)Oc1ccc2c(c1)CCC(=O)N2)C(C)C , is the recorded inhibition at 10 µM at or above 20%?
class 1

These data points were gathered from patent EP4644375A1.
